Source: patent US6335339B1

system: HBV; test: antiviral assay in 2.2.15 cells producing HBV (virion DNA dot blot); format: cell-based, Hepatitis B virus; conditions: extra-cellular virus reduced by 50%; 2.2.15 cells, 9 days treatment; read-out: Antiviral EC50
valueKind: EC50

Challenge: Item O=C(NNc1nc(Nc2ccccc2)nc(Nc2cccc(C(F)(F)F)c2)n1)c1cccc(Br)c1 has what recorded EC50?
Response given: > 100 µM

Challenge: Item COc1ccc(Br)cc1/C=N/Nc1nc(Nc2cccc([N+](=O)[O-])c2)nc(N2CCOCC2)n1 has what recorded EC50?
Response given: > 100 µM

Challenge: Item CCN(CC)c1nc(NN=Cc2cc([N+](=O)[O-])ccc2OC)nc(Nc2cc(C)ccc2C)n1 has what recorded EC50?
Response given: > 100 µM

Challenge: Item Cc1[nH]c2ccccc2c1C=NNc1nc(Nc2ccccc2)nc(Nc2ccc([N+](=O)[O-])cc2)n1 has what recorded EC50?
Response given: 0.3 µM

====

tested on: 2.2.15 cells; assay: neutral red dye uptake cytotoxicity; type: cell-based; settings: 9 days treatment, read-out: 50% Cell Death CC50
Give measured CC50 for each item. Keep answers brief.
Report the figure in µM without appending any unit label.

Challenge: Item COc1ccc(Br)cc1/C=N/Nc1nc(Nc2cccc([N+](=O)[O-])c2)nc(N2CCOCC2)n1 has what recorded CC50?
Response given: 33

Challenge: Item CCN(CC)c1nc(NN=Cc2cc([N+](=O)[O-])ccc2OC)nc(Nc2cc(C)ccc2C)n1 has what recorded CC50?
Response given: 209

Challenge: Item CCCCN(CCCC)c1nc(NN=Cc2cccc(Cl)c2)nc(Nc2ccc([N+](=O)[O-])cc2)n1 has what recorded CC50?
Response given: 3.9

====

Give measured CC50 for each item. Keep answers brief.
system: 2.2.15 cells; test: neutral red dye uptake cytotoxicity; assay type: cell-based; conditions: 9 days treatment, read-out: 50% Cell Death CC50
Report the figure in µM without appending any unit label.

Challenge: Please state recorded CC50 (tested on 2.2.15 cells) of CCN(CC)c1nc(NN=Cc2c(O)ccc3ccccc23)nc(Nc2ccccc2)n1 [Compound 171]
Response given: 174

Challenge: Please state recorded CC50 (tested on 2.2.15 cells) of Brc1cccc(C=NNc2nc(Nc3ccccc3)nc(N3CCOCC3)n2)c1 [Compound 163]
Response given: 150

Challenge: Please state recorded CC50 (tested on 2.2.15 cells) of CC(=NNc1nc(Nc2ccccc2)nc(N2CCCC2)n1)c1ccc(F)cc1 [Compound 227]
Response given: 247

Challenge: Please state recorded CC50 (tested on 2.2.15 cells) of CCCCN(CCCC)c1nc(NN=Cc2ccc(Cl)cc2)nc(Nc2ccc([N+](=O)[O-])cc2)n1 [Compound 16]
Response given: 304

Challenge: Please state recorded CC50 (tested on 2.2.15 cells) of Cc1ccc(Nc2nc(NN=Cc3ccccc3)nc(Nc3ccccc3)n2)cc1 [Compound 25]
Response given: 105

Challenge: Please state recorded CC50 (tested on 2.2.15 cells) of Cc1[nH]c2ccccc2c1C=NNc1nc(NCc2ccccc2)nc(Nc2ccccc2)n1 [Compound 50]
Response given: 30

Challenge: Please state recorded CC50 (tested on 2.2.15 cells) of Oc1ccc(Br)cc1C=NNc1nc(Nc2cccc(Br)c2)nc(N2CCOCC2)n1 [Compound 232]
Response given: 190

Challenge: Please state recorded CC50 (tested on 2.2.15 cells) of Cc1ccc(Nc2nc(NCc3ccccc3)nc(NN=Cc3cc(Cl)ccc3O)n2)cc1C [Compound 226]
Response given: 280

Challenge: Please state recorded CC50 (tested on 2.2.15 cells) of Cc1ccc(Nc2nc(NN=Cc3cc(I)ccc3O)nc(Nc3ccccc3)n2)c(C)c1 [Compound 159]
Response given: 101

Challenge: Please state recorded CC50 (tested on 2.2.15 cells) of Oc1ccc(I)cc1C=NNc1nc(NCc2ccccc2)nc(Nc2ccccc2)n1 [Compound 33]
Response given: 50

Challenge: Please state recorded CC50 (tested on 2.2.15 cells) of CCCCN(CCCC)c1nc(NN=Cc2ccc(OCC)c(O)c2)nc(Nc2ccc([N+](=O)[O-])cc2)n1 [Compound 23]
Response given: 145

Challenge: Please state recorded CC50 (tested on 2.2.15 cells) of COc1ccc(Nc2nc(NN=Cc3ccc(O)cc3O)nc(Nc3ccccc3)n2)cc1 [Compound 158]
Response given: 112

Challenge: Please state recorded CC50 (tested on 2.2.15 cells) of Oc1ccc2ccccc2c1C=NNc1nc(Nc2cccc3ccccc23)nc(N2CCOCC2)n1 [Compound 167]
Response given: 161

Challenge: Please state recorded CC50 (tested on 2.2.15 cells) of FC(F)(F)c1cccc(Nc2nc(Nc3ccccc3)nc(N3CCOCC3)n2)c1 [Compound 21]
Response given: 5.6

====

Give measured CC50 for each item. Keep answers brief.
System: 2.2.15 cells
Test: neutral red dye uptake cytotoxicity
Assay type: cell-based
Settings: 9 days treatment, read-out: 50% Cell Death CC50
Description: Further, the antiviral effect of any compound must be measured against its toxicity. Cytotoxicity is measured by the neutral red uptake method using the same cells used for antiviral activity. 2b. […] 3b. The cytotoxicity of test compounds was analyzed in a 3.3-fold dilution series as follows. […] The antiviral effect of any compound was evaluated relative to its toxicity. […] 2. […] These wells were used as “blanks” for the plate reader. […]
Report the figure in µM without appending any unit label.

Challenge: Item Cc1ccccc1Nc1nc(NN=Cc2ccc3c(c2)OCO3)nc(Nc2ccc([N+](=O)[O-])cc2)n1 has what recorded CC50?
Response given: 15

Challenge: Item COc1c(C=NNc2nc(N3CCCC3)nc(N3CCOCC3)n2)cccc1[N+](=O)[O-] has what recorded CC50?
Response given: 666

Challenge: Item Brc1ccc(Nc2nc(NCc3ccccc3)nc(Nc3ccc(Br)cc3)n2)cc1 has what recorded CC50?
Response given: 231

Challenge: Item COc1ccccc1C=NNc1nc(NCc2ccccc2)nc(Nc2ccccc2)n1 has what recorded CC50?
Response given: 400

Challenge: Item Brc1cc2c(cc1C=NNc1nc(NCc3ccccc3)nc(Nc3ccccc3)n1)OCO2 has what recorded CC50?
Response given: 87

Challenge: Item CCCCN(CCCC)c1nc(NN=Cc2ccc3c(c2)OCO3)nc(Nc2ccc([N+](=O)[O-])cc2)n1 has what recorded CC50?
Response given: 27

Challenge: Item Cc1ccc(Nc2nc(NN=Cc3ccc(Cl)c(Cl)c3)nc(Nc3ccccc3)n2)c(C)c1 has what recorded CC50?
Response given: 136

Challenge: Item O=[N+]([O-])c1cc(C=NNc2nc(Nc3ccccc3)nc(N3CCOCC3)n2)ccc1Cl has what recorded CC50?
Response given: 11

Challenge: Item COc1ccc(Nc2nc(NN=Cc3ccc(O)cc3O)nc(N3CCOCC3)n2)cc1 has what recorded CC50?
Response given: 201

Challenge: Item CN(C)c1nc(NCc2ccccc2)nc(NCc2cccs2)n1 has what recorded CC50?
Response given: 739

====

Test system: HBV
Assay: antiviral assay in 2.2.15 cells producing HBV (virion DNA dot blot)
Assay type: cell-based, Hepatitis B virus
Settings: extra-cellular virus reduced by 50%; 2.2.15 cells, 9 days treatment; read-out: Antiviral EC50
Procedure: Several cell lines and cell culture assays have been developed to identify potential therapeutics effective against chronic HBV infection. […] The antiviral activity of the compounds of the present invention is measured by the methods described in Korba and Gering, Antiviral Res. 19: 55-70 (1992). […]
valueKind: EC50 (nM)
Report the figure in nM without appending any unit label.

Challenge: Item COc1ccc(Nc2nc(NN=Cc3ccc(O)cc3O)nc(N3CCOCC3)n2)cc1 has what recorded EC50?
Response given: 863

Challenge: Item Cc1ccc(Nc2nc(NN=Cc3ccc(O)cc3O)nc(Nc3ccc([N+](=O)[O-])cc3)n2)cc1C has what recorded EC50?
Response given: 474

====

test system: 2.2.15 cells; assay: neutral red dye uptake cytotoxicity; type: cell-based; conditions: 9 days treatment, read-out: 50% Cell Death CC50
valueKind: CC50 (µM)
Report the figure in µM without appending any unit label.

Challenge: Item Cc1ccc(Nc2nc(NN=Cc3cccc([N+](=O)[O-])c3)nc(Nc3ccccc3)n2)c(C)c1 [Compound 229] has what recorded CC50?
Response given: 237

Challenge: Item Cc1ccc(Nc2nc(NN=Cc3ccc(O)cc3O)nc(Nc3ccc([N+](=O)[O-])cc3)n2)cc1C [Compound 9] has what recorded CC50?
Response given: 175

Challenge: Item Cc1ccc(Nc2nc(NN=Cc3cccc(Br)c3)nc(Nc3ccccc3)n2)c(C)c1 [Compound 49] has what recorded CC50?
Response given: 140

Challenge: Item Cc1ccc(Nc2nc(NN=Cc3ccc(Cl)cc3)nc(N3CCOCC3)n2)cc1 [Compound 249] has what recorded CC50?
Response given: 134

Challenge: Item Cc1ccc(Nc2nc(NN=Cc3ccc4c(c3)OCO4)nc(Nc3ccccc3)n2)c(C)c1 [Compound 51] has what recorded CC50?
Response given: 130
